Molecular target: Nucleoprotein (Lymphocytic choriomeningitis virus (strain Armstrong)) (UniProt P09992)
Sequence (P09992 whole entry, looked up): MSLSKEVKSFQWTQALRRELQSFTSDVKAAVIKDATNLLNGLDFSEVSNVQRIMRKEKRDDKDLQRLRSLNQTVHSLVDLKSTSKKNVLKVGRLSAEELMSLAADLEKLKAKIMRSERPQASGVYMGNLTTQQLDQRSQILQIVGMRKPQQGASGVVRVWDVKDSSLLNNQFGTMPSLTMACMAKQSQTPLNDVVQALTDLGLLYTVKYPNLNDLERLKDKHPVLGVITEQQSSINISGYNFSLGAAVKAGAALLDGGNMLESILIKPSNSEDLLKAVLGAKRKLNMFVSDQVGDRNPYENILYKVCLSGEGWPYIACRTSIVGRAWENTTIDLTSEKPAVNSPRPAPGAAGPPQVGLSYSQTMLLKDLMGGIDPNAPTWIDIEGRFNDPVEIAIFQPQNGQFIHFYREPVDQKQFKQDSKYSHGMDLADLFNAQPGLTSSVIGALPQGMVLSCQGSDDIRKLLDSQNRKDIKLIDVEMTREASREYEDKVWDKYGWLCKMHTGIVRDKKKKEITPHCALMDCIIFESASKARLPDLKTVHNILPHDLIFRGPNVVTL
Assay: qHTS for Inhibitors of the Functional Ribonucleoprotein Complex (vRNP) of Lymphocytic Choriomeningitis Arenaviruses (LCMV): LCMV Primary Screen - GLuc reporter signal (AID 1347086); note: nearly all actives have a fitted effect of over 70% in size
Settings: LCMV minigenome vRNP cell assay, Gaussia luciferase reporter; series mostly up to 57.5 µM
Inconclusive results are not listed. Active and inactive are the calls of the source. Calls come from the whole dose curve.
Outcome codes: 1 for active, -1 for inactive

molecule=Cc1cc(NC(=O)Nc2ccc(N(C)C)cc2)c2cc(F)cc(F)c2n1 test_target="Nucleoprotein (Lymphocytic choriomeningitis virus (strain Armstrong)) (UniProt P09992)" category=-1
molecule=CC(C)(C)[C@]1(O)CCN2C[C@H]3c4ccccc4CCc4cccc(c43)[C@@H]2C1 test_target="Nucleoprotein (Lymphocytic choriomeningitis virus (strain Armstrong)) (UniProt P09992)" category=-1
molecule=OCc1ccc(-c2nn(Cc3ccccc3)c3ccccc23)o1 test_target="Nucleoprotein (Lymphocytic choriomeningitis virus (strain Armstrong)) (UniProt P09992)" category=-1
molecule=N[C@@H](CCCC(=O)O)C(=O)O test_target="Nucleoprotein (Lymphocytic choriomeningitis virus (strain Armstrong)) (UniProt P09992)" category=-1
molecule="COC(=O)CC(C)CCC=C(C)C (stereo not given)" test_target="Nucleoprotein (Lymphocytic choriomeningitis virus (strain Armstrong)) (UniProt P09992)" category=-1
molecule=CN1CCC[C@H]1c1cccnc1 test_target="Nucleoprotein (Lymphocytic choriomeningitis virus (strain Armstrong)) (UniProt P09992)" category=-1
molecule=Cc1cc(OCCCc2c(C(=O)O)n(Cc3cccnc3)c3c(-c4c(COc5ccc(N6CCN([S+](C)(=O)[O-])CC6)cc5)nn(C)c4C)cccc23)cc(C)c1Cl test_target="Nucleoprotein (Lymphocytic choriomeningitis virus (strain Armstrong)) (UniProt P09992)" category=-1
molecule=Cn1ncc(S(=O)(=O)Cc2ccccc2)c(Br)c1=O test_target="Nucleoprotein (Lymphocytic choriomeningitis virus (strain Armstrong)) (UniProt P09992)" category=-1
molecule=CC(C)NC[C@H](O)COc1cccc2[nH]ccc12 test_target="Nucleoprotein (Lymphocytic choriomeningitis virus (strain Armstrong)) (UniProt P09992)" category=-1
molecule=CCn1c(=O)[nH]c2cc(Cl)c(Cl)cc21 test_target="Nucleoprotein (Lymphocytic choriomeningitis virus (strain Armstrong)) (UniProt P09992)" category=-1
molecule=CC(C)CNc1ccnc(NCc2csc(-c3ccccc3)n2)n1 test_target="Nucleoprotein (Lymphocytic choriomeningitis virus (strain Armstrong)) (UniProt P09992)" category=1
molecule="S=C(S)OC1CC2CC1C1CCCC21 (stereo not given)" test_target="Nucleoprotein (Lymphocytic choriomeningitis virus (strain Armstrong)) (UniProt P09992)" category=-1
molecule=CC(C)(O)[C@H]1CC[C@@](C)([C@H]2[C@@H](O)C[C@@]3(C)[C@@H]4C[C@H](O[C@@H]5O[C@H](CO)[C@@H](O)[C@H](O)[C@@H]5O)[C@H]5C(C)(C)[C@@H](O[C@@H]6OC[C@@H](O)[C@H](O)[C@@H]6O)CC[C@@]56C[C@@]46CC[C@]23C)O1 test_target="Nucleoprotein (Lymphocytic choriomeningitis virus (strain Armstrong)) (UniProt P09992)" category=-1
molecule=CC(=O)N1CCN(c2ccc(OCc3nn(C)c(C)c3-c3cccc4c(CCCOc5cc(C)c(Cl)c(C)c5)c(C(=O)O)n(Cc5cccnc5)c34)cc2)CC1 test_target="Nucleoprotein (Lymphocytic choriomeningitis virus (strain Armstrong)) (UniProt P09992)" category=-1
molecule="CCCCCCCCCCCCCC(=O)OCC(O)CO (stereo not given)" test_target="Nucleoprotein (Lymphocytic choriomeningitis virus (strain Armstrong)) (UniProt P09992)" category=-1
molecule=COC1=CC(=O)[C@@]2([C@@H]1O)[C@@H](Cl)C[C@]13C(OC)=C(OC)C(=O)C[C@]21CCN3C test_target="Nucleoprotein (Lymphocytic choriomeningitis virus (strain Armstrong)) (UniProt P09992)" category=-1
molecule=NC(=O)c1ncn([C@@H]2O[C@H](CO)[C@@H](O)[C@@H]2O)c1N test_target="Nucleoprotein (Lymphocytic choriomeningitis virus (strain Armstrong)) (UniProt P09992)" category=-1
molecule=COC(=O)c1cc(O)cc(OC)c1C(=O)c1c(O)cc(C)cc1O test_target="Nucleoprotein (Lymphocytic choriomeningitis virus (strain Armstrong)) (UniProt P09992)" category=-1
molecule=COc1cc2c(cc1OC)-c1cc3cc(OC)c(OC)cc3c(=O)n1CC2 test_target="Nucleoprotein (Lymphocytic choriomeningitis virus (strain Armstrong)) (UniProt P09992)" category=-1
molecule=O=C(c1ccc2c(c1)OCCO2)N1CCCCC1 test_target="Nucleoprotein (Lymphocytic choriomeningitis virus (strain Armstrong)) (UniProt P09992)" category=-1

====

System: Hek293T
Test: Primary qHTS to identify gynecologic anti-cancer compounds using libraries of approved drugs and bioactive compounds (AID 1345084); note: nearly all actives have a fitted effect of over 55% in size
Settings: Gynecologic cancer cell panel viability, ATPlite luminescence, 48 h, control line for the selectivity index; series mostly up to 57.5 µM
Inconclusive results are not listed. Activity calls are given as the source filed them. Calls follow the shape of the dose curve; as a rule, active = well fitted cell-killing curve with a large enough effect; inconclusive = small, poorly fitted or top-dose-only effect, or effect the other way; inactive = flat fitted curve, though single readings scatter.
Outcome codes: YES (active), NO (inactive)

compound=CN1C(=O)CN=C(c2ccccc2Cl)c2cc(Cl)ccc21 category=NO
compound="CCC1CN2CCC3(C(=O)Nc4cccc(O)c43)C2CC1/C(=C/OC)C(=O)OC (centres undefined)" category=NO
compound=C=C1C(=O)O[C@@H]2[C@H]3C(=C)[C@@H](O)C[C@H]3C(=C)C[C@@H](O)[C@@H]12 category=NO
compound="C[C@@H]1O[C@@H](OC2CCC3(C=O)C(CCC4C3CCC3(C)C(C5=CC(=O)OC5)C(O)CC43O)C2)[C@H](O)[C@H](O)[C@H]1O[C@@H]1O[C@H](CO)[C@@H](O)[C@H](O)[C@H]1O (some centres undefined)" category=YES

====

Assay: qHTS Assay for Lipid Storage Modulators (AID 1519); note: % is set by controls: 0 for no effect and ±100 for the full control effect
Details: Drosophila S3 cells, BODIPY lipid droplet/cell ratio, laser cytometry; at 25.7 µM (top of the series); cells loaded with oleic acid
Records with an inconclusive call do not appear.
value_kind: activity change, negative = inhibition (%)

molecule=NC[C@@H](CC(=O)O)c1ccc(Cl)cc1 numeric_readout=0.101
molecule=COc1ccc2c(c1)[nH]c1c(C)nccc12 numeric_readout=-4.61
molecule=C=CCN1CC[C@]23c4c5ccc(O)c4O[C@@H]2C(=O)CC[C@]3(O)[C@H]1C5 numeric_readout=-1.11
molecule=O=C1C[C@@H](c2ccc(O)cc2)Oc2cc(O)cc(O)c21 numeric_readout=0.577
molecule=c1ccc2c(c1)OC[C@@H](C1=NCCN1)O2 numeric_readout=1.16
molecule=c1cncc(C2=NCCC2)c1 numeric_readout=-0.221
molecule=CNCC[C@H](Oc1ccc(C(F)(F)F)cc1)c1ccccc1 numeric_readout=-1.04
molecule=O[C@H]1CCCC[C@H]1N1CCC(c2ccccc2)CC1 numeric_readout=0.444
molecule="CN1[C@H]2CC(OC(=O)[C@@H](CO)c3ccccc3)C[C@H]1[C@H]1O[C@H]12 (stereo not given in full)" numeric_readout=-0.085
molecule=COc1ccc2c3c([nH]c2c1)C(C)=NCC3 numeric_readout=1.66

====

System: Zika virus NS2B-NS3 protease
Test: Primary screen GU AMC qHTS for Zika virus inhibitors (AID 1347154);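 note: 0% = no-inhibitor control and -100% = no-enzyme control; nearly all actives have a fitted effect of over 70% in size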
Settings: Zika NS2B-NS3 unlinked protease, AMC fluorogenic substrate; series mostly up to 54.1 µM
Records with an inconclusive call do not appear. Activity calls are given as the source filed them. The call rests on the fitted dose curve; in most records, active means well fitted inhibition curve with a large enough effect; inconclusive means small, poorly fitted or top-dose-only effect; inactive means flat fitted curve, though single readings scatter. Where a SMILES comes first, the peptide text is derived from it.
value_kind: activity change, negative = inhibition

molecule="CN(CC(=O)N[C@H](CO)Cc1ccccc1)C(=O)[C@H](CCS(C)=O)NC(=O)[C@@H](N)Cc1ccc(O)cc1 (stereo not given in full) (HELM PEPTIDE1{Y.[CS(=O)CC[C@H](N[*:1])C(=O)[*:2]].[Sar].[OC[C@H](Cc1ccccc1)N[*:1]]}$$$$V2.0)" result="16.9% [at 6.83 µM] (inactive)"
molecule="O=C1CC2OCC=C3CN4CCC56c7ccccc7N1C5C2C3CC46 (stereo not given)" result=inactive
molecule="COc1ccc2[nH]c3c(c2c1)CCNC3C (stereo not given)" result=inactive
molecule=CC(C)[C@@H]1CN[C@H](C(=O)O)[C@@H]1CC(=O)O result=inactive
molecule=CN1CCN(c2ccc3ccccc3n2)CC1 result=inactive

====

Tested on: HeLa
Experiment: Primary qHTS to identify gynecologic anti-cancer compounds using libraries of approved drugs and bioactive compounds (AID 1345084); note: nearly all actives have a fitted effect of over 55% in size
Conditions: Gynecologic cancer cell panel viability, ATPlite luminescence, 48 h; series mostly up to 57.5 µM
Records with an inconclusive call do not appear. Calls of active or inactive are those of the source. Calls come from the whole dose curve; as a rule, active = well fitted cell-killing curve with a large enough effect; inconclusive = small, poorly fitted or top-dose-only effect, or effect the other way; inactive = flat fitted curve, though single readings scatter.
Outcome codes: active, inactive

compound=C/C1=C/[C@@H](C)C/C=C/[C@H]2[C@@H]3O[C@]3(C)[C@@H](C)[C@H]3[C@H](Cc4c[nH]c5ccccc45)NC(=O)[C@]32C(=O)/C=C\C(=O)[C@@H]1O category=inactive
compound=COc1ccc2c(c1)c(CCN(C)C)cn2S(=O)(=O)c1ccccc1 category=inactive
compound="COc1ccc2c3c([nH]c2c1)C(C=C(C)C)N1C(=O)C2CCCN2C(=O)C1C3 (configuration not stated)" category=inactive
compound=COc1cc(N2CCN(C)CC2)ccc1N category=inactive
compound="Cc1cccc(NC(=O)NC2N=C(c3ccccc3)c3ccccc3N(CC(=O)c3ccccc3C)C2=O)c1 (configuration not stated)" category=inactive
compound="CN1C(=O)C(Cc2ccc3ccccc3c2)N=C(c2ccc(O)cc2)c2cc(Cl)ccc21 (configuration not stated)" category=inactive
compound="C=C1C2(C)CC3C(C)(O)C4=CC(=O)OC(C)(C)C4=CCC3(C)C13C(=O)OC(C)C3(O)C2=O (configuration not stated)" category=inactive
compound="C[C@]12CC[C@H](O[C@@H]3O[C@H](CO)[C@@H](O)[C@H](O)[C@H]3O)CC1CC[C@@H]1C2CC[C@]2(C)[C@@H](C3=CC(=O)OC3)CC[C@]12O (some centres not stated)" category=active
compound=C=C(CO)[C@@]12O[C@@H]1[C@@]1(C)C(=CC2=O)CC[C@@H](O)[C@@H]1C category=inactive
compound=CN1Cc2c(ccc3c2OCO3)[C@@H]2[C@H]1c1cc3c(cc1C[C@@H]2O)OCO3 category=active
compound="CC1=CC2/C=C(\\C)CCC(O)C(O)/C=C/C(=O)OC23C(=O)NC(CC(C)C)C3C1C (configuration not stated)" category=inactive
compound=CC1(C)C(=O)N(c2ccc(C#N)c(C(F)(F)F)c2)C(=O)N1CCCCO category=inactive
compound="CC1CCCC(O)CC(=O)Cc2cc(O)cc(O)c2C(=O)O1 (configuration not stated)" category=inactive
compound="C[C@H]1CCC/C=C/C2C[C@H](O)C[C@H]2[C@H](O)/C=C/C(=O)O1 (some centres not stated)" category=active
compound=COc1cc(O)c2c(c1)/C=C/C[C@@H](O)[C@@H](O)C(=O)CCC[C@H](C)OC2=O category=inactive
compound="C[C@@H]1C[C@@H](O)[C@]2(O)O[C@@H]3C[C@@]4(C=O)C(CC[C@@H]5C4CC[C@]4(C)[C@@](O)(C6=CC(=O)OC6)CC[C@]54O)C[C@H]3OC2O1 (some centres not stated)" category=active
compound="C=CC(C)(C)C12C=C(O)C(=O)N3/C(=C\\c4cnc[nH]4)C(=O)NC31N(OC)c1ccccc12 (configuration not stated)" category=inactive
